- Test system: mTORc1 signaling, pS6 (Ser240/244) in MEF TSCl−/− cells
- experiment-summary: Cell-based assay for rapalog potency (pS6) in MEF TSCl−/− cells
- condition-info: Mus musculus, 2 hours treatment, average from multiple assays
measured-property: IC50 (nM)

>>> value_measured("CO[C@@H]1C[C@H](C[C@@H](C)[C@@H]2CC[C@H](C)/C=C(\\C)[C@@H](O)[C@@H](OC)C(=O)[C@H](C)C[C@H](C)/C=C/C=C/C=C(\\C)[C@H](NS(=O)(=O)C3CCC3)C[C@@H]3CC[C@@H](C)[C@@](O)(O3)C(=O)C(=O)N3CCCC[C@H]3C(=O)O2)CC[C@H]1O [Compound 14]")
7.2
>>> value_measured("CO[C@@H]1C[C@H](C[C@@H](C)[C@@H]2CC[C@H](C)/C=C(\\C)[C@@H](O)[C@@H](OC)C(=O)[C@H](C)C[C@H](C)/C=C/C=C/C=C(\\C)[C@@H](NS(=O)(=O)CCCCl)C[C@@H]3CC[C@@H](C)[C@@](O)(O3)C(=O)C(=O)N3CCCC[C@H]3C(=O)O2)CC[C@H]1O [Compound 17]")
1.6
>>> value_measured("CO[C@@H]1C[C@H](C[C@@H](C)[C@@H]2CC[C@H](C)/C=C(\\C)[C@@H](O)[C@@H](OC)C(=O)[C@H](C)C[C@H](C)/C=C/C=C/C=C(\\C)[C@@H](N(O)C(=O)OC(C)(C)C)C[C@@H]3CC[C@@H](C)[C@@](O)(O3)C(=O)C(=O)N3CCCC[C@H]3C(=O)O2)CC[C@H]1O [Compound 35]")
4.4

Numbers sourced from patent US12281125B2.
